Numbers sourced from PubChem BioAssay (NCI).

# System: HOP-92 NSCLC
# measurement.notes: NCI tumour cell line growth inhibition, 48 h
readout.name: TGI (µM)

smiles_data=CCN(CC)CCn1c2ccc(O)cc2c2sc3cc(OC)ccc3c(=O)c21 unit_abbreviation=µM numeric_result=17
smiles_data=Oc1ccc(CSc2nnc(-c3ccccc3)n2-c2ccccc2)c2cccnc12 unit_abbreviation=µM numeric_result=0.787
smiles_data=Oc1ccc(CSc2nnc(-c3ccc(Oc4ccccc4)cc3)o2)c2cccnc12 unit_abbreviation=µM numeric_result=24.9
smiles_data=CN1CCN(c2ccc(NC(=O)Nc3ccc4c(ccn4-c4cccc(C(N)=O)n4)c3)cc2C(F)(F)F)CC1 unit_abbreviation=µM numeric_result=15.8

###

Entries and their measured GI50 follow.
# Tested on: SK-MEL-2 melanoma
# measurement.notes: NCI tumour cell line growth inhibition, 48 h
readout.name: GI50

smiles_data=Oc1ccc(CSc2nnc(-c3ccccc3)n2-c2ccccc2)c2cccnc12 readout_name=GI50 result="0.621 µM"
smiles_data=Oc1ccc(CSc2nnc(-c3ccc(Oc4ccccc4)cc3)o2)c2cccnc12 readout_name=GI50 result="3.56 µM"
smiles_data=CCN1CCN(c2ccc(NC(=O)Nc3ccc4c(ccn4-c4ccnc(C(=O)NC)c4)c3)cc2C(F)(F)F)CC1 readout_name=GI50 result="12.6 µM"
smiles_data=CCN(CC)CCn1c2ccc(O)cc2c2sc3cc(OC)ccc3c(=O)c21 readout_name=GI50 result="9.15 µM"

###

# Tested on: SF-539 CNS
# measurement.notes: NCI tumour cell line growth inhibition, 48 h
readout.name: GI50

smiles_data=CCN1CCN(c2ccc(NC(=O)Nc3ccc4c(ccn4-c4ccnc(C(=O)NC)c4)c3)cc2C(F)(F)F)CC1 readout_name=GI50 result="1.63 µM"
smiles_data=CN1CCN(c2ccc(NC(=O)Nc3ccc4c(ccn4-c4cccc(C(N)=O)n4)c3)cc2C(F)(F)F)CC1 readout_name=GI50 result="1.92 µM"
smiles_data=CCN(CC)CCn1c2ccc(O)cc2c2sc3cc(OC)ccc3c(=O)c21 readout_name=GI50 result="1.76 µM"
smiles_data=Oc1ccc(CSc2nnc(-c3ccc(Oc4ccccc4)cc3)o2)c2cccnc12 readout_name=GI50 result="0.689 µM"
